# Hill slope listing for each entry below
assayed-target: SARS-CoV-2 NSP3 Mac1 (Severe acute respiratory syndrome coronavirus 2)
measurement-protocol: biochemical
Assay type: binding
measurement-parameters: FDA-approved hit compounds, confirmatory HTRF assays
Note: the reply should be a number with no unit written.

Below: 3 molecules and their reported Hill slope.
{"molecule": "O=c1c2ccccc2[se]n1-c1ccccc1 [Ebselen, reference compound]", "assayed-target": "SARS-CoV-2 NSP3 Mac1 (Severe acute respiratory syndrome coronavirus 2)", "Hill slope": 4.94}
{"molecule": "CC(C)(O/N=C(\\C(=O)N[C@@H]1C(=O)N2C(C(=O)[O-])=C(C[n+]3ccccc3)CS[C@H]12)c1csc(N)n1)C(=O)O [Ceftazidime, reference compound]", "assayed-target": "SARS-CoV-2 NSP3 Mac1 (Severe acute respiratory syndrome coronavirus 2)", "Hill slope": 1.38}
{"molecule": "CN1CCCN=C1/C=C/c1cccc(O)c1 [Oxantel pamoate, reference compound]", "assayed-target": "SARS-CoV-2 NSP3 Mac1 (Severe acute respiratory syndrome coronavirus 2)", "Hill slope": 1.34}

Kindly review the next molecule as well.
Looking up C[C@H]1[C@H](NC(=O)/C(=N\OC(C)(C)C(=O)O)c2csc(N)n2)C(=O)N1S(=O)(=O)O [Aztreonam, reference compound] , I found its Hill slope recorded as 1.05

====

assayed-target: SARS-CoV-2 NSP3 Mac1 (Severe acute respiratory syndrome coronavirus 2)
measurement-protocol: biochemical
Format: binding
measurement-parameters: MIDAS hit compounds and analogues, top concentration 125 µM, 8-point 1:1 dilution, duplicate
quantity-measured: IC50 in µM

Below, 8 compounds whose answers are already recorded.
{"compound": "COc1ccc(-c2cc(C(=O)Nc3cccc(S(=O)(=O)N(C)C)c3)c3ccccc3n2)cc1", "IC50 in µM": "Not measurable"}
{"compound": "CC(C#N)NC(=O)c1cc(-c2cccs2)nc2c1cnn2C(C)C (stereo not drawn)", "IC50 in µM": "Not measurable"}
{"compound": "CC(C)n1ncc2c(C(=O)N3CCNC(=O)C3(C)C)cc(-c3cccs3)nc21", "IC50 in µM": "Not measurable"}
{"compound": "CCCNC(=O)c1cc(-c2ccc(OC)cc2)nc2ccccc12", "IC50 in µM": "Not measurable"}
{"compound": "CC1(C(=O)N2CCCC(c3c[nH]c4ncccc34)C2)CCC(=O)NC1 (stereo not drawn)", "IC50 in µM": "Not measurable"}
{"compound": "CNC(=O)CN(C)C(=O)c1cc(-c2cccs2)nc2c1c(C)nn2C", "IC50 in µM": "Not measurable"}
{"compound": "CCN(C)C(=O)c1ccc(-c2ccnc3c2ccn3C)nc1", "IC50 in µM": "Not measurable"}
{"compound": "CC(C)n1ncc2c(C(=O)N(C)Cc3ccc4c(c3)OCO4)cc(-c3cccs3)nc21", "IC50 in µM": "Not measurable"}

Per the record, CCn1ncc2c(C(=O)NCCNC(C)=O)cc(-c3cccs3)nc21 has IC50 in µM of Not measurable

====

assayed-target: SARS-CoV-2 NSP3 Mac1 (Severe acute respiratory syndrome coronavirus 2, UniProt P0DTD1)
measurement-protocol: biochemical
Format: binding
measurement-parameters: MIDAS hit compounds and analogues, 125 µM; read-out: Inhibition at top concentration of 125 µM (%)
Hi, to clarify the labels: met covers inhibition at 125 µM from 20% upward, not met covers anything below 20%.

# input Entry CC1(C(=O)N2CCCC(c3c[nH]c4ncccc34)C2)CCC(=O)NC1 (centres unmarked) : is its inhibition at 125 µM no less than 20%?
# output not met

====

assayed-target: SARS-CoV-2 NSP3 Mac1 (Severe acute respiratory syndrome coronavirus 2)
measurement-protocol: biochemical
Assay type: binding
measurement-parameters: MIDAS hit compounds and analogues, 125 µM; read-out: Inhibition at top concentration of 125 µM (%)
quantity-measured: inhibition at 125 µM (%)
Use % as the unit, but write only the number.

Below are worked cases with known answers.
{"compound": "CC(C)n1ncc2c(C(=O)N(C)Cc3cccc(O)c3)cc(-c3cccs3)nc21 [IAL-MD0104]", "observed-result": 18.4}
{"compound": "CONC(=O)c1cc(-c2ccc(OC)cc2)nc2ccccc12 [IAL-MD0024]", "observed-result": 60.3}
{"compound": "COc1ccc(-c2cc(C(=O)O)c3ccccc3n2)cc1OC [IAL-MD0094]", "observed-result": 31.9}
{"compound": "Cc1nn(C)c2nc(-c3cccs3)cc(C(=O)NCc3ccccn3)c12 [IAL-MD0048]", "observed-result": 15.8}
{"compound": "CC(C)n1ncc2c(C(=O)N3CCNC(=O)C3)cc(-c3ccccc3)nc21 [IAL-MD0123]", "observed-result": 1.8}

inhibition at 125 µM on SARS-CoV-2 NSP3 Mac1 (Severe acute respiratory syndrome coronavirus 2) for CCn1ncc2c(C(=O)Nc3ccc(C(N)=O)cc3)cc(-c3cccs3)nc21 [IAL-MD0097] is 7.7

Response field inhibition at 125 µM (SARS-CoV-2 NSP3 Mac1 (Severe acute respiratory syndrome coronavirus 2)) for item CCn1ncc2c(C(=O)NC(C)c3ccncc3)cc(-c3cccs3)nc21 (stereo not drawn) [IAL-MD0120] : 8.9

Let me check: CC(C)n1ncc2c(C(=O)N3CCc4ccccc4C3)cc(-c3cccs3)nc21 [IAL-MD0060] , system SARS-CoV-2 NSP3 Mac1 (Severe acute respiratory syndrome coronavirus 2), measured inhibition at 125 µM is 1.9

The measured inhibition at 125 µM that CCn1ncc2c(C(=O)NC(C)c3ccccn3)cc(-c3cccs3)nc21 (stereo not drawn) [IAL-MD0119] showed for SARS-CoV-2 NSP3 Mac1 (Severe acute respiratory syndrome coronavirus 2) is 6.3

Let me check: CC(C)n1ncc2c(C(=O)N3CCNC(=O)C3)cc(-c3ccco3)nc21 [IAL-MD0070] , system SARS-CoV-2 NSP3 Mac1 (Severe acute respiratory syndrome coronavirus 2), measured inhibition at 125 µM is 83.2

====

assayed-target: SARS-CoV-2 NSP3 Mac1 (Severe acute respiratory syndrome coronavirus 2, UniProt P0DTD1)
measurement-protocol: biochemical
Format: binding
measurement-parameters: MIDAS compound library primary screen, 25 µM
Mark YES for reported inhibition at 25 µM of 60% or greater; mark NO for anything smaller.

{"molecule": "COc1ccc(-c2cc(C(=O)O)c3cc(NC(C)=O)ccc3n2)cc1", "group-label": "NO"}
{"molecule": "CCOc1ccc2c(C)c(C(=O)N[C@@H]3CCNC[C@H]3O)oc2c1OCC", "group-label": "NO"}
{"molecule": "COCCNC(=O)c1ccc(-c2ccnc3c2ccn3C)o1", "group-label": "YES"}
{"molecule": "CN1CCC(Cn2ccnc2-c2ccc(-c3ccccc3C#N)o2)C1 (stereo not drawn)", "group-label": "NO"}
{"molecule": "Cn1ccc2c(-c3ccc(C(=O)N4CCCCC4)cn3)ccnc21", "group-label": "NO"}

Please examine the following record next.
# input Is inhibition at 25 µM at least 60%? Consider CCn1ncc2c(C(=O)N3CCNC(=O)C3)cc(-c3cccs3)nc21
# output NO

====

assayed-target: SARS-CoV-2 NSP3 Mac1 (Severe acute respiratory syndrome coronavirus 2)
measurement-protocol: biochemical
Assay type: binding
measurement-parameters: FDA-approved compound library primary screen, 50 µM, single shot
Where a name gives a salt, the structure may show the parent alone.
NSP3 Mac1 inhibition at 50 µM (%) of 90% or higher: criterion met. Under 90%: criterion not met.

{"compound": "C=C1c2cccc(O)c2C(=O)C2=C(O)[C@]3(O)C(=O)C(C(N)=O)=C(O)[C@@H](N(C)C)[C@@H]3[C@@H](O)[C@H]12 [Methacycline hydrochloride, reference compound]", "assayed-target": "SARS-CoV-2 NSP3 Mac1 (Severe acute respiratory syndrome coronavirus 2)", "group-label": "criterion not met"}
{"compound": "O=C(O)c1cc(O)c2c(c1)[C@H]([C@H]1c3cc(C(=O)O)cc(O)c3C(=O)c3c(O[C@@H]4O[C@H](CO)[C@@H](O)[C@H](O)[C@H]4O)cccc31)c1cccc(O[C@@H]3O[C@H](CO)[C@@H](O)[C@H](O)[C@H]3O)c1C2=O [Sennoside A, reference compound]", "assayed-target": "SARS-CoV-2 NSP3 Mac1 (Severe acute respiratory syndrome coronavirus 2)", "group-label": "criterion met"}

# input Dear colleague, could you confirm whether C=CCCCCCCCCC(=O)[O-].C=CCCCCCCCCC(=O)[O-].[Zn+2] [Zinc undecylenate, reference compound] has NSP3 Mac1 inhibition at 50 µM (%) at or above 90%?
# output criterion not met

# input Does the compound COc1ccc(C(=O)CC(=O)c2ccc(C(C)(C)C)cc2)cc1 [Avobenzone, reference compound] have recorded NSP3 Mac1 inhibition at 50 µM (%) that is 90% or more?
# output criterion not met

# input Determine whether this compound has NSP3 Mac1 inhibition at 50 µM (%) no lower than 90%: C[C@H]1[C@H](NC(=O)/C(=N\OC(C)(C)C(=O)O)c2csc(N)n2)C(=O)N1S(=O)(=O)O [Aztreonam, reference compound]
# output criterion not met

Just for reference, paper PMC9965906 is where these values come from.
